# system name: T1, Bzz1-1, P38822
# T1 sequence (P38822 478-572, looked up): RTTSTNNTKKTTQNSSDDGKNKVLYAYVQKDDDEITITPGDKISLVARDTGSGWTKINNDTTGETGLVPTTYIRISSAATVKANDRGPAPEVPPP
# measurement protocol: SPOT array
# condition context: median of control spots 4446
attribute measured: SPOT intensity

>  <binder>
EVTPKVPERPSRRKT

>  <attribute measured>
SPOT intensity

>  <reported result>
1

$$$$
>  <binder>
KDKKTKPTPPPKPSH

>  <attribute measured>
SPOT intensity

>  <reported result>
0

$$$$

Parameters: items (list). Returns: SPOT intensity for each item.
1. KIRRSSLMIPNPQQF
2. FHLNPKRSAVLYDRP

1
3
